Test system: MOLT-4 leukemia
Assay: NCI tumour cell line growth inhibition, 48 h; in the data active = GI50 below about 0.43 µM; inactive = the rest
Returns: one label drawn from active, inactive

compound	class_label
COc1ccc(C(=O)Cn2c(C(=O)c3ccc(Cl)cc3)nc3ccccc32)cc1	inactive
O=C(CCN1CCN(c2cccc(Cl)c2)CC1)N1CCc2c([nH]c3ccccc23)C1c1cccnc1 (configuration not stated)	inactive
O=[N+]([O-])c1cnc(Sc2ccncn2)c([N+](=O)[O-])c1	inactive
O=C1/C(=C/c2cccc([N+](=O)[O-])c2)COc2ccc(O)c(O)c21	inactive
C=C1C(=O)O[C@H]2[C@H]1CC/C(COC(=O)C(=O)c1c[nH]c3ccccc13)=C\CC[C@@]1(C)O[C@@H]21	inactive
O=[N+]([O-])c1ccc(N2CCN(Cc3ccccc3)CC2)c2c1no[n+]2[O-]	active
Cn1ccnc1C(=O)/C=C/c1ccc(CC(=O)Nc2ccc(Cl)cc2)cc1	inactive
COc1cccc(-c2nn(-c3ccccc3)cc2-c2ccnc(NCCNS(=O)(=O)c3ccc(Cl)cc3)c2)c1	inactive

Identify the outcome logged in this assay for the compound shown: `CS(=O)(=O)c1ccc(Oc2cc(F)cc(C#N)c2)c2c1[C@H](O)[C@H](F)[C@@H]2F`
inactive

# outcome recorded in this test, key = `CN(C)/[N+]([O-])=N/Oc1cc(Nc2cccc(C(=O)O)c2)c([N+](=O)[O-])cc1[N+](=O)[O-]`
inactive

Hey, what did the test say about `CC(C)C[C@@H](NC(=O)[C@@H](Cc1ccccc1)NC(=O)c1cnccn1)B1O[C@H]2[C@H](O)[C@@H](C(=O)NCCCC[C@@H]3NC(=O)[C@@H](Cc4ccccc4)NC(=O)[C@H](CC(=O)O)NC(=O)CNC(=O)[C@H](CCCN=C(N)N)NC3=O)O[C@@H](CN)[C@H]2O1` ?
active

I would be grateful if you could indicate the recorded call for COc1ccc(-c2ccc(C3CC(c4ccc(O)cc4)=NN3)o2)c([N+](=O)[O-])c1 (configuration not stated) .
inactive

---

Tested on: SK-MEL-28 melanoma
Test: NCI tumour cell line growth inhibition, 48 h
Each entry below carries its recorded TGI.

compound	measured
C=C1C(=O)O[C@@H]2[C@H]3O[C@]3(C)CCC=C(C)CC[C@@H]12	44.3 µM
CCNC(=O)C[C@@H]1N=C(c2ccc(Cl)cc2)c2cc(OC)ccc2-n2c(C)nnc21	> 100 µM
CN(C1=NCCO1)c1cccc2ccccc12	> 10 µM

For reference, reported TGI for `Cc1[nH]c2ncn3nc(C(Cl)(Cl)Cl)nc3c2c1Cc1ccccc1` stands at > 100 µM

Lab note: measured TGI of `Nc1c(C(=O)Nc2ccccc2)sc2nc3c(cc12)CCCCCC3` was 21.8 µM

Value of TGI reported for the compound COc1ccc2c(c1)C(N)CC2=O (stereo unspecified) is > 100 µM

---

Test system: SR leukemia
Experiment: NCI tumour cell line growth inhibition, 48 h
assay_metric: TGI

smiles_data	TGI
CCOC(=O)c1c(C)n(Cc2ccccc2)c(=O)c2ccccc2c(=O)c2c(=O)ccc(=O)c1=2	> 100 µM
CCCCCCCCCOC(=O)c1cnc(Cl)cn1	> 100 µM
Cn1c(C(N)=O)cc2c1-c1nc(Nc3ccccc3)ncc1CCC2	33.1 µM

TGI for `O=C1OC(c2ccco2)=N/C1=C\c1ccc(Cl)c(Cl)c1` is > 100 µM

Measured TGI of `CN(C)/[N+]([O-])=N/Oc1cc(Nc2cccc(C(=O)O)c2)c([N+](=O)[O-])cc1[N+](=O)[O-]` : > 100 µM

---

Test system: COLO 205 colon
Experiment: NCI tumour cell line growth inhibition, 48 h
# reported TGI; entries follow
Output spec: scalar in µM, unitless text.

For orientation, consider the following solved cases.
smiles_data	test_system	TGI, µM
Cn1c(C(N)=O)cc2c1-c1nc(Nc3ccccc3)ncc1CCC2	COLO 205 colon	17.7
CC(C)(C)NNC(=O)/C(=C/c1ccc(Oc2ccc(Cl)c(Cl)c2)cc1)NC(=O)c1ccccc1	COLO 205 colon	36.8

# ---- query molecule ----
Query `CN(C)CCNC(=O)c1ccc(Nc2nc3ccccc3c3occc23)cc1` yields TGI of 59.7

---

Tested on: SF-268 CNS
Experiment: NCI tumour cell line growth inhibition, 48 h
Quick reference: GI50 of the listed items.

Observe how each entry below is paired with its result.
compound	measured
COc1ccc(-c2ccc(C3CC(c4ccc(O)cc4)=NN3)o2)c([N+](=O)[O-])c1 (configuration not stated)	22.3 µM
CNc1ccccc1C(=O)N/N=C/C=C/c1ccccc1	7.23 µM
O=S(=O)([O-])[O-].[OH3+].[OH3+].[OH3+].[Ru+2].c1ccccc1	> 100 µM
Cc1ccc(Nc2nc(NCCO)c3ccccc3n2)cc1C	9.27 µM
Cn1c(C(N)=O)cc2c1-c1nc(Nc3ccccc3)ncc1CCC2	5.52 µM

Summary for this compound, `COc1ccc(C(=O)Cn2c(C(=O)c3ccc(Cl)cc3)nc3ccccc32)cc1` : GI50 is > 24.4 µM

// GI50 lookup, compound = `Nc1c(C(=O)Nc2ccccc2)sc2nc3c(cc12)CCCCCC3` , result: 1.14 µM

---

System: DMS 114 small cell lung
Test: NCI tumour cell line growth inhibition, 48 h
Where a SMILES comes first, the peptide text is derived from it.
Form field: TGI (one value per entry).

molecule	TGI
O=C(Nc1ccc(Cl)c(C(F)(F)F)c1)C(=O)C(C(=O)/C=C/c1ccccc1)C1OC(=O)c2ccccc21 (centres undefined)	> 100 µM
CC1NC(=O)CNC(=O)CNC(=O)C(Cc2ccc(O)cc2)NC(=O)C(C(C)C)NC(=O)C(C)NC1=O (centres undefined) (cyclo(GGAAVY); configuration not given here)	> 100 µM
COc1ccc2[nH]cc(CCNC(C)=O)c2c1	> 100 µM
CC(Cn1c2c3ccccc3ccc2c2oc(=O)c3ccccc3c21)N(C)C (centres undefined)	> 100 µM

TGI recorded for this molecule, `O=C1C=CC(=O)c2c1ccc1c3ccccc3n(-c3ccccn3)c21` , is 40.2 µM

Entry `NC(=S)/N=C/c1c(O)c2ccccc2oc1=O` , TGI reported as > 100 µM

Quick note, TGI for `Cn1ncc(=S)[nH]c1=S` landed at > 100 µM

// recorded TGI for `COc1cccc(N2C(=O)c3c(c4[nH]c5ccccc5c4c4ccc(C(C)(C)C)cc34)C2=O)c1` : > 100 µM

Entry `C/C(=N\NC(=S)N1CCCCCC1)c1nccnc1C` ; TGI = 0.0275 µM

---

Recorded TGI by entry
System: SNB-19 CNS
Test: NCI tumour cell line growth inhibition, 48 h

The value of TGI measured for the compound `O=C(/C=C/c1ccco1)c1ccc(Nc2nc(Nc3ccc(F)cc3)nc(Nc3ccc(Cl)cc3)n2)cc1` turned out to be > 70 µM

The recorded TGI for `Cc1cc(-c2ccc(C(=O)O)[nH]2)on1` is > 100 µM

`CC(=O)N(C)OC(=O)CC(=O)c1ccccc1` has a reported TGI of > 100 µM

// field: TGI; key: CC(Cn1c2c3ccccc3ccc2c2oc(=O)c3ccccc3c21)N(C)C (stereo not given) ; value = > 100 µM

// TGI lookup, compound = `CC/C(=N\NC(=O)c1cccnc1)c1ccc2c(c1)OCCO2` , result: > 100 µM

TGI measured on `COc1cc(NS(C)(=O)=O)ccc1NCc1cnc2ccc3[nH]c(C)ccc3c12` = > 100 µM

Short answer for `CC/C=C\C[C@H](O)C/C=C1/C(=O)C=C[C@@H]1C/C=C\CCCC(=O)NC(C)C` : TGI was 22.6 µM

Quick note, TGI for `Cc1ccc(NC(=O)c2[nH]c(=S)nc(N)c2-c2ccccc2C)cc1C` landed at > 100 µM

Briefly, TGI measured for `CS(=O)(=O)c1ccc(Oc2cc(F)cc(C#N)c2)c2c1[C@H](O)[C@H](F)[C@@H]2F` : > 100 µM

Summary for this compound, CCCCCC(CN1CCOCC1)C(=O)/C=C/c1ccccc1 (stereo not given) : TGI is 13.2 µM

---

Test system: IGROV1 ovarian
Assay: NCI tumour cell line growth inhibition, 48 h
Attribute: TGI

compound	assay_metric	measured
CN(C)CCCNc1c(O)c2c(c(O)c1Cl)C(=O)C=CC2=O	TGI	3.45 µM
C/C(CN1C(=O)c2ccccc2C1=O)=N\NS(=O)(=O)c1cccc([N+](=O)[O-])c1	TGI	> 100 µM
COC(CN(C)C(=O)C(C)NC(=O)c1ccccc1)OC (configuration not stated)	TGI	> 100 µM
Cc1ccc(C)c(NC(=O)C(=O)C(c2cnc3ccc([N+](=O)[O-])cc3n2)[N+](=O)[O-])c1 (configuration not stated)	TGI	83.8 µM
CN1CCCN2CCN(C)CCN(CC1)CC2	TGI	> 100 µM

# TGI (compound: `COc1ccc(C(=O)Cn2c(C(=O)c3ccc(OC)cc3)nc3ccccc32)cc1` ) is > 100 µM

# compound `CN/N=C(/Cc1occc(=O)c1O)C(=O)Nc1ccc(C)c(C)c1` ; its TGI = > 100 µM

// field: TGI; key: `O=C(Nc1ccc(S(=O)(=O)Nc2nccs2)cc1)c1cccnc1Nc1cccc(Cl)c1` ; value = 53 µM

TGI in this record for O=C(O)c1ccc(NC(=O)C2C(=O)C(=O)N(c3ccc(C(=O)O)cc3)C2=O)cc1 (configuration not stated) : > 100 µM

response.value for `CCCCCCCCCCCCCS(=O)(=O)O` (field: TGI) = > 100 µM

// TGI value for CCOC(=O)C1C(=O)CC(O)(OCC)C(C(=O)OCC)C1c1ccc(OC)cc1 (configuration not stated) : > 100 µM

Value of TGI reported for the compound CN1C2CCC1CC(OC(c1ccccc1)c1ccccc1)C2 (configuration not stated) is 38.8 µM

Entry `CCNC(=O)C[C@@H]1N=C(c2ccc(Cl)cc2)c2cc(OC)ccc2-n2c(C)nnc21` , TGI reported as > 100 µM
